// reported IC50 for each item listed
molecular target: rat FAAH (Rattus norvegicus); construct: expressed in transfected cells; crude homogenate; test: Assay Method 2: FAAH assay, 3H-anandamide hydrolysis in homogenate of cells transfected with rat FAAH; assay type: biochemical; conditions: cell homogenate, 3H-AEA 80 nM, 1 h at rt, average of results
Sequence (P97612 whole entry): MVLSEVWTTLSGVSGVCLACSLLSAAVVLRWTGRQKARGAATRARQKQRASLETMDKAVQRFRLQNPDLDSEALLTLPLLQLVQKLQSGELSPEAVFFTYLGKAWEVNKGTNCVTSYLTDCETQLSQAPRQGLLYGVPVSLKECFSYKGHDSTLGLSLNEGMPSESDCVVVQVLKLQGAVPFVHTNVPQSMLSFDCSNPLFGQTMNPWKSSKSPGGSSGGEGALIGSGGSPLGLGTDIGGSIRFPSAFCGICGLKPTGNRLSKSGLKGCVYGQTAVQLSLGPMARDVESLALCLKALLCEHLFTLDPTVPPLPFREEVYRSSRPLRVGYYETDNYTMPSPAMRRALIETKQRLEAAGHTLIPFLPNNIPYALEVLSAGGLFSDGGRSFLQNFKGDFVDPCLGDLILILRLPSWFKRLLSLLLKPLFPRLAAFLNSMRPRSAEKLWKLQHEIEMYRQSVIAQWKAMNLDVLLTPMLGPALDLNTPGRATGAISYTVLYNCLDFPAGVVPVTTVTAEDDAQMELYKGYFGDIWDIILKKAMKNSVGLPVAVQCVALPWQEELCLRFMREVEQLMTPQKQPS
Counter-ions that a name gives are not always drawn.
Expressed in nM, but write only the number.

Some solved entries appear below for comparison.
[[record]]
compound = "O=C(Nc1cccnc1)N1CCC(Cc2cccc(Oc3ccc(F)cc3)c2)C1 (stereo not drawn)"
reading = 1100

[[record]]
compound = "O=C(Nc1cccnc1)N1CC(CCOc2cc(Cl)cc(Cl)c2)C1"
reading = 250

[[record]]
compound = "O=C(Nc1cnc2[nH]ccc2c1)N1CC(CCOc2cccc(Oc3ccc(Cl)cc3)c2)C1"
reading = 4

[[record]]
compound = "O=C(Nc1cnccc1Cl)N1CC(CCOCc2ccc(Cl)c(Cl)c2)C1"
reading = 84

[[record]]
compound = "O=C(Nc1cccnc1)N1CC(COc2cccc(Oc3ccc(Cl)cc3)c2)C1"
reading = 200

[[record]]
compound = "O=C(Nc1cccnc1)N1CC(COc2cccc(C(F)(F)F)c2)C1 [Example 8, trifluoroacetate salt]"
reading = 620


# query: IC50 of entry O=C(Nc1cccnc1)N1CC(COc2ccc3ccccc3c2)C1
1600

# query: IC50 of entry O=C(Nc1cccnc1)N1CC(CCOc2cccc(Oc3ccc(OC(F)(F)F)cc3)c2)C1
400

# query: IC50 of entry CCCCOc1cccc(OCCC2CN(C(=O)Nc3cccnc3)C2)c1
2000

# query: IC50 of entry CS(=O)(=O)c1ccc(Oc2cccc(OCC3CCN(C(=O)Nc4cnccc4Cl)C3)c2)cc1 (stereo not drawn)
97

# query: IC50 of entry O=C(Nc1cccnc1)N1CC(COc2ccc(OC(F)(F)F)cc2)C1
3000
